Ref: ChEMBL document CHEMBL1201862

# Test system: TK-10
# Test: NCI tumour cell line growth inhibition, 48 h
Active and inactive are the calls of the source. Rule as the data show it: active = GI50 up to about 1.1 µM and inactive = higher.
Measured endpoint: GI50

| Compound | GI50 |
| --- | --- |
| CC[N+](CC)(CCNCC(N)=O)CC(N)=O | > 10 µM (inactive) |
| O=CN(CCN1CCCC1)C1CCc2cc(Cl)c(Cl)cc2C1 (centres undefined) | 16.3 µM (inactive) |
| CCC1C[N+]23CCc4c([nH]c5ccccc45)C2CC1CC3 (centres undefined) | 74.3 µM (inactive) |
| O=P1(Oc2ccccc2)C(c2ccccc2)C(c2ccccc2)=NN1c1ccccc1 (centres undefined) | 38.7 µM (inactive) |
| CC1(C)CC2(S(=O)(=O)c3ccccc3)ON1CC2S(=O)(=O)c1ccccc1 (centres undefined) | > 100 µM (inactive) |
| Cc1cn(C2OC(C)(CO)C(O)C2O)c(=O)[nH]c1=O (centres undefined) | > 100 µM (inactive) |

So what's the measured GI50 for this one? C(/C=N/N=C1NCCCN1)=N\N=C1NCCCN1
> 10 µM (inactive)

# input compound: O=[N+]([O-])c1ccc2c(c1)N=C1OC(c3c[nH]c4ccc(COc5ccccc5)cc34)C(O)=C1N2 (centres undefined) ; wanted: its GI50
59.2 µM (inactive)

GET /values?readout=GI50&item= C=CC(OCC)(OCC)OCC
> 100 µM (inactive)

Look up GI50 for this compound: COC(=O)c1c(O)c(C#N)c2[nH]c3ccccc3n2c1=O
> 100 µM (inactive)

# get_value(readout='GI50', item= Cc1cc2ccc(N)nc2nc1O )
> 100 µM (inactive)

Can you share its GI50? I mean this compound: COc1ccccc1N1C(=O)/C(=C\c2ccccc2)SC1c1cc(OC)c(OC)c(OC)c1 (centres undefined)
> 100 µM (inactive)

Value lookup for GI50; key = ON=C(CC(O)(C(F)(F)Cl)C(F)(F)Cl)CC(O)(C(F)(F)Cl)C(F)(F)Cl
7.66 µM (inactive)

Data request, read-out GI50, for C=C1CCC2C(C)(CO)C(O)CCC2(C)C1C/C=C1/CCOC1=O (centres undefined)
> 100 µM (inactive)

# get_value(readout='GI50', item= N#Cc1nc(COCc2ccccc2)oc1N )
> 100 µM (inactive)

* * *

# GI50 listing for each entry below
# Test system: NCI/ADR-RES
# Test: NCI tumour cell line growth inhibition, 48 h
Calls of active or inactive are those of the source. Rule as the data show it: active = GI50 up to about 1.1 µM and inactive = higher.

The examples below pair each entry with its known result.
| Compound | Test system | Measured endpoint | Result |
| --- | --- | --- | --- |
| Cc1cc2ccc(N)nc2nc1O | NCI/ADR-RES | GI50 | > 100 µM (inactive) |
| O=C(OC1OC2COC(=O)c3cc(O)c(O)c(O)c3-c3c(cc(O)c(O)c3O)C(=O)OC3C2OC(=O)[C@@]24CC(=O)[C@@](O)(OC25C(=O)O[C@H]2[C@@H](O)CO[C@@]25O)C2(O)Oc5c(O)c(O)cc(c5C24)C(=O)OC13)c1cc(O)c(O)c(O)c1 (stereo partly drawn) | NCI/ADR-RES | GI50 | 29.2 µM (inactive) |
| COC(=O)c1cc2ccc(OC(C)=O)c(OC(C)=O)c2cn1 | NCI/ADR-RES | GI50 | 6.5 µM (inactive) |
| COc1ccc(/N=C(/SS/C(=N/c2ccc(OC)cc2)c2ccc([N+](=O)[O-])o2)c2ccc([N+](=O)[O-])o2)cc1 | NCI/ADR-RES | GI50 | 1.39 µM (inactive) |
| CN(C)C(=O)C(F)(F)C(c1ccc(C(F)(F)F)cc1)C1C(=O)N(C)C(=O)N(C)C1=O (stereo not drawn) | NCI/ADR-RES | GI50 | > 100 µM (inactive) |
| CC(=O)SSC1(Cl)C(C)(C)C(Cl)(SSC(C)=O)C1(C)C (stereo not drawn) | NCI/ADR-RES | GI50 | 40.2 µM (inactive) |

Give recorded GI50 with NCI/ADR-RES for the following compound: CCCCc1ccc(Nc2nc(O)c3ncn(COCCO)c3n2)cc1
> 100 µM (inactive)
